# Target Under Test: HLA-DRB1*04:01 (Homo sapiens, UniProt P01903+P01911, A100K/A169T/F76Y/I96L/K127E/L162R/M171V/N62H/P40V/Q125Y/R42H/S133A/S149N/S66Y/V115G/V209L/W38E)
# Construct: EBV transformed homozygous cell lines were used as sources of MHC molecules; endogenous in cells; host or cells: EBV transformed homozygous cell lines
# Method Summary: HLA class II peptide binding, inhibition of radiolabeled peptide binding to purified MHC
# Conditions Used: value of the wild-type (non-citrullinated) counterpart of the listed peptide; read-out: DRB1*04:01 binding capacity WT peptide (IC50 nM)
Square brackets hold non-standard residues; d marks the D form. Peptide text beside a SMILES is read from it. Cit = NC(=O)NCCC[C@H](N)C(=O)O
Record form. Attribute: IC50. Fill in for each entry.
Numbers only, in nM.

Here's what some known entries look like.
{"Compound": "CC[C@H](C)[C@H](NC(=O)[C@@H](NC(=O)[C@@H](NC(=O)[C@H](CCCCN)NC(=O)CN)[C@@H](C)O)C(C)C)C(=O)N[C@@H](CCC(=O)O)C(=O)N[C@@H](Cc1ccc(O)cc1)C(=O)N[C@@H](CCCNC(=N)N)C(=O)N[C@@H](CO)C(=O)N[C@@H](CCC(N)=O)C(=O)N[C@@H](CCCCN)C(=O)N[C@H](C(=O)N[C@@H](CO)C(=O)N[C@@H](CCCNC(N)=O)C(=O)N[C@@H](CC(C)C)C(=O)O)[C@@H](C)O [GKTVIEYRSQKTSXL] (H-GKTVIEYRSQKTS[Cit]L-OH)", "IC50 [nM]": 646}
{"Compound": "CC[C@H](C)[C@H](N)C(=O)N[C@@H](CCCNC(N)=O)C(=O)N[C@@H](C)C(=O)N[C@@H](CCC(=O)O)C(=O)NCC(=O)N[C@@H](CC(N)=O)C(=O)N[C@@H](CO)C(=O)N[C@@H](CCCNC(=N)N)C(=O)N[C@@H](Cc1ccccc1)C(=O)N[C@H](C(=O)N[C@@H](Cc1ccc(O)cc1)C(=O)N[C@H](C(=O)N[C@@H](C)C(=O)N[C@@H](CC(C)C)C(=O)N[C@@H](CCCCN)C(=O)O)[C@@H](C)O)[C@@H](C)O [IXAEGNSRFTYTALK] (H-I[Cit]AEGNSRFTYTALK-OH)", "IC50 [nM]": 794}
{"Compound": "CC[C@H](C)[C@H](NC(=O)[C@H](CC(=O)O)NC(=O)[C@@H](NC(=O)[C@@H](NC(=O)[C@@H]1CCCN1C(=O)[C@H](CC(C)C)NC(=O)[C@H](CCCNC(N)=O)NC(=O)[C@H](CO)NC(=O)[C@@H](NC(=O)[C@H](CCCCN)NC(=O)[C@H](CCC(N)=O)NC(=O)[C@H](CO)NC(=O)[C@H](CCCNC(=N)N)NC(=O)[C@H](Cc1ccc(O)cc1)NC(=O)[C@@H](N)CCC(=O)O)[C@@H](C)O)[C@@H](C)CC)[C@@H](C)CC)C(=O)O [EYRSQKTSXLPIIDI] (H-EYRSQKTS[Cit]LPIIDI-OH)", "IC50 [nM]": 314}
{"Compound": "CC[C@H](C)[C@H](NC(=O)[C@H](CC(=O)O)NC(=O)[C@H](CCSC)NC(=O)[C@@H]1CCCN1C(=O)[C@H](C)NC(=O)[C@@H](NC(=O)[C@H](CC(=O)O)NC(=O)[C@@H](NC(=O)[C@@H](NC(=O)[C@@H]1CCCN1C(=O)[C@H](CC(C)C)NC(=O)[C@H](CCCNC(N)=O)NC(=O)[C@H](CO)NC(=O)[C@@H](NC(=O)[C@@H](N)CCCCN)[C@@H](C)O)[C@@H](C)CC)[C@@H](C)CC)[C@@H](C)CC)C(=O)O [KTSXLPIIDIAPMDI] (H-KTS[Cit]LPIIDIAPMDI-OH)", "IC50 [nM]": 8750}

Next compound, IC50 to be filled in.
For the compound CC(C)C[C@H](NC(=O)[C@H](C)NC(=O)[C@@H](NC(=O)[C@H](Cc1ccc(O)cc1)NC(=O)[C@@H](NC(=O)[C@H](Cc1ccccc1)NC(=O)[C@H](CCCNC(N)=O)NC(=O)[C@H](CO)NC(=O)[C@@H](N)CC(N)=O)[C@@H](C)O)[C@@H](C)O)C(=O)N[C@@H](CCCCN)C(=O)N[C@@H](CC(=O)O)C(=O)NCC(=O)N[C@@H](CS)C(=O)N[C@H](C(=O)N[C@@H](CCCCN)C(=O)O)[C@@H](C)O [NSXFTYTALKDGCTK] (H-NS[Cit]FTYTALKDGCTK-OH) , what IC50 is on record?
4170
